Attribution: patent US20090143361A1

Some molecules, each annotated with its measured pIC50.
Target system: PDE10 from pig striatum (Sus scrofa)
Assay explanation: Inhibition of PDE10 from pig striatum ([3H]-cAMP SPA)
Assay type: biochemical
Condition notes: Table 8; read-out: PDE10 pig IC50
pIC50: −log10 of the molar value.

Fill in the blank: the reported pIC50 of COc1ccc2nc(C)c3c(C)nc(-c4cccc(C(=O)N(C)C)c4)n3c2n1 [Example 104] is ____.
< 7.00

What do you have for COc1ccc2nc(C)c3c(C)nc(-c4ccccc4OC)n3c2n1 [Example 52] ?
7.00 to 8.00

What do you have for COc1ccc2nc(C)c3c(C)nc(C#CC4CC4)n3c2n1 [Example 97] ?
7.00 to 8.00

What do you have for COc1ccc2nc(C)c3c(C)nc(C#Cc4ccccc4C)n3c2n1 [Example 99] ?
< 7.00

What do you have for COc1ccc(-c2nc(C)c3c(C)nc4ccc(OC)nc4n23)cc1 [Example 55] ?
7.00 to 8.00

What do you have for COc1ccc2nc(C)c3c(C)nc(-c4cc(F)ccc4OC)n3c2n1 [Example 83] ?
7.00 to 8.00

What do you have for COc1ccc2nc(C)c3c(C)nc(-c4ccc(Cl)cc4C(F)(F)F)n3c2n1 [Example 91] ?
> 8.00

What do you have for COc1ccc2nc(C)c3c(C)nc(C#Cc4ccccc4)n3c2n1 [Example 75] ?
7.00 to 8.00

What do you have for COc1ccc2nc(C)c3c(C)nc(-c4cc(C)ccc4Cl)n3c2n1 [Example 78] ?
> 8.00

What do you have for COc1ccc2nc(C)c3c(C)nc(C#Cc4ccc(F)cc4)n3c2n1 [Example 76] ?
< 7.00

What do you have for CCNC(=O)c1cccc(-c2nc(C)c3c(C)nc4ccc(OC)nc4n23)c1 [Example 101] ?
7.00 to 8.00

What do you have for COc1ccc2nc(C)c3c(C)nc(-c4cc(Cl)ccc4Cl)n3c2n1 [Example 47] ?
> 8.00

What do you have for COc1ccc2nc(C)c3c(C)nc(-c4cscc4C)n3c2n1 [Example 69] ?
> 8.00
